The values you see were collected from patent EP4786492A1.

- assay target: mouse DLL3 on CHO-K1-mDLL3 cells (mouse) (UniProt O88516)
- Sequence (O88516 other isoform, or with tags, fused parts or gaps limits assumed): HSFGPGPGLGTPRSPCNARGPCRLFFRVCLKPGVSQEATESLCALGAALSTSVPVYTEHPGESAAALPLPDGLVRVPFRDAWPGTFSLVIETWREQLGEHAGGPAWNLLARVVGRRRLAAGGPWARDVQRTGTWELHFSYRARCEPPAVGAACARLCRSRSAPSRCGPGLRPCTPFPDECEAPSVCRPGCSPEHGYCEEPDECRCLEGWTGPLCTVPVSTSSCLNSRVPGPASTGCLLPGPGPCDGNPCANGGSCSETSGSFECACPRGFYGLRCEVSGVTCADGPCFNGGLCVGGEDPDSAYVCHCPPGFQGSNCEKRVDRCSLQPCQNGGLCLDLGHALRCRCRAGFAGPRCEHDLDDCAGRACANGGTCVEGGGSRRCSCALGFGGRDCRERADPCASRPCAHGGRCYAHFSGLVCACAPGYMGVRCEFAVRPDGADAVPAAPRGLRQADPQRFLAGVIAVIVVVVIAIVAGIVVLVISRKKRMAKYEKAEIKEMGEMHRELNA
- assay info: FACS, CHO-K1-mDLL3 cells, 0.032 nM antibody
quantity kind: MFI (MFI)
Report only the number, with the unit MFI understood.

## Input Any idea what its MFI is? The binder is Hab015VL5VH1b-hFc (scFv, part only; not given: VL-VH linker and human IgG1 Fc, V domains shown, not shown: another chain or arm of the molecule; a dimerising Fc or GST; small tags and cut ends) VL: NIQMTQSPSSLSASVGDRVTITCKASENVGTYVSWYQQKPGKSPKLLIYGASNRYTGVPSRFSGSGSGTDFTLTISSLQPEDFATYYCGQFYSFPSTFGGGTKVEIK VH: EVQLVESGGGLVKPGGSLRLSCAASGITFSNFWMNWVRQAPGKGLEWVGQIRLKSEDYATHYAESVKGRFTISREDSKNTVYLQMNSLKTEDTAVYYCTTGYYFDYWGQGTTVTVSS
## Output 186

## Input Entry Hab009VL2aVH1-hFc (scFv, part only; not given: VL-VH linker and human IgG1 Fc, V domains shown, not shown: another chain or arm of the molecule; a dimerising Fc or GST; small tags and cut ends) VL: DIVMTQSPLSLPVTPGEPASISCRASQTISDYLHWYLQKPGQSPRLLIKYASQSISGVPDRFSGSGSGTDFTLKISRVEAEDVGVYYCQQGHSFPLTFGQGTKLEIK VH: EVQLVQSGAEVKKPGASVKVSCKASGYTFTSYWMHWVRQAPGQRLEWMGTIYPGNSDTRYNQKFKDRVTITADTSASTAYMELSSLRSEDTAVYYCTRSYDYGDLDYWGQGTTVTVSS : reported MFI = ?
## Output 272

## Input Need MFI, item Hab006VL4VH1-hFc (scFv, part only; not given: scFv linker and human IgG1 Fc, V domains shown, not shown: another chain or arm of the molecule; a dimerising Fc or GST; small tags and cut ends) VL: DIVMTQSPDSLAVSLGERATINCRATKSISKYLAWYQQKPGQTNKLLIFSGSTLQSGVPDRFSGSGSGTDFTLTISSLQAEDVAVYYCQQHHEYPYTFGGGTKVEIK VH: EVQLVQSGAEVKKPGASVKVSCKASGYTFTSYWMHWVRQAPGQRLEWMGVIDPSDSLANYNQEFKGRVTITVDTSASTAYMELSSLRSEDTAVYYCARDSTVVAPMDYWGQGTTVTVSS
## Output 165

## Input I am curious: what MFI value has been reported for Hab015VL5VH5a-hFc (scFv, part only; not given: scFv linker and human IgG1 Fc, V domains shown, not shown: another chain or arm of the molecule; a dimerising Fc or GST; small tags and cut ends) VL: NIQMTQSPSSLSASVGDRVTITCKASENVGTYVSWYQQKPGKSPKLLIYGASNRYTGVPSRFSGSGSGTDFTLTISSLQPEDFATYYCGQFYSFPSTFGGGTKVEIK VH: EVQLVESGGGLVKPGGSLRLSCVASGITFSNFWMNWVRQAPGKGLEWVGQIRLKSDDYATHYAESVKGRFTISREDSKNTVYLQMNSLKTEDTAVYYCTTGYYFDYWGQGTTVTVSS ?
## Output 199

## Input Need MFI of Hab014VL3VH1-hFc (scFv, part only; not given: VL-VH linker and human IgG1 Fc, V domains shown, not shown: another chain or arm of the molecule; a dimerising Fc or GST; small tags and cut ends) VL: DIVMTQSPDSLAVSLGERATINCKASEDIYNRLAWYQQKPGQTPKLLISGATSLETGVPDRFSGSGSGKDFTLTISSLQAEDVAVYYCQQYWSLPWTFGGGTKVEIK VH: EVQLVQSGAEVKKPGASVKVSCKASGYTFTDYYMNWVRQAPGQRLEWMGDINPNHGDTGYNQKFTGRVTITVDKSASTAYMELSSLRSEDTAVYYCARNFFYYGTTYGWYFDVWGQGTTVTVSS , thanks.
## Output 137

## Input Fill in the blank: the reported MFI of Hab015VL5VH1a-hFc (scFv, part only; not given: scFv linker and human IgG1 Fc, V domains shown, not shown: another chain or arm of the molecule; a dimerising Fc or GST; small tags and cut ends) VL: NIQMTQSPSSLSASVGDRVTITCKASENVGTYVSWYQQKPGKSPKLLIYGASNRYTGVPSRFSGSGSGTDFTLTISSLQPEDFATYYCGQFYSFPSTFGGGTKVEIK VH: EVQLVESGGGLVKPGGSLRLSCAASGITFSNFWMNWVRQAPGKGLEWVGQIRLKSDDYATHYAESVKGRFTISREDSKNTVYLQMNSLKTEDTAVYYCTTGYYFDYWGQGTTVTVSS is ____.
## Output 195

## Input Could you tell me which MFI is on file for Hab013VL2VH2a-hFc (scFv, part only; not given: scFv linker and human IgG1 Fc, V domains shown, not shown: another chain or arm of the molecule; a dimerising Fc or GST; small tags and cut ends) VL: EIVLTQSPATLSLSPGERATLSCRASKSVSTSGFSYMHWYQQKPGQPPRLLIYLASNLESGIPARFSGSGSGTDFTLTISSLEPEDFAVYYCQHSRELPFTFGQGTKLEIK VH: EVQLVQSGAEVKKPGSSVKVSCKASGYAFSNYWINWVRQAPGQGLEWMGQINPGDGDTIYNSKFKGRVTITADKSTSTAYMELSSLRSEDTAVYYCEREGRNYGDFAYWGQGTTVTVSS ?
## Output 179

## Input // lookup MFI for Hab006VL4VH2-hFc (scFv, part only; not given: scFv linker and human IgG1 Fc, V domains shown, not shown: another chain or arm of the molecule; a dimerising Fc or GST; small tags and cut ends) VL: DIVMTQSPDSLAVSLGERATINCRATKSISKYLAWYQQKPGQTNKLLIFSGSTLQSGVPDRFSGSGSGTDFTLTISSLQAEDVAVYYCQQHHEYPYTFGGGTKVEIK VH: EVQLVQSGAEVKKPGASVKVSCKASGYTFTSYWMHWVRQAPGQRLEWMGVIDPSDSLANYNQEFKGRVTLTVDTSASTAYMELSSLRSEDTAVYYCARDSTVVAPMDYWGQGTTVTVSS
## Output 185

## Input I am curious: what MFI value has been reported for Hab014VL2VH1-hFc (scFv, part only; not given: scFv linker and human IgG1 Fc, V domains shown, not shown: another chain or arm of the molecule; a dimerising Fc or GST; small tags and cut ends) VL: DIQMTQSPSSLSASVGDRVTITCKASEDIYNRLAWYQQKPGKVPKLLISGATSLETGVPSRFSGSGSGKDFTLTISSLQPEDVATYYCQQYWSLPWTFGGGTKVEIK VH: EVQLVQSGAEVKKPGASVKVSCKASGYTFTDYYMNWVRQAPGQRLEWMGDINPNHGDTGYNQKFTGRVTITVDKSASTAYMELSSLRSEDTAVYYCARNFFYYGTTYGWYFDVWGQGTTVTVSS ?
## Output 152

## Input Consider the binder Hab009VL3aVH1-hFc (scFv, part only; not given: VL-VH linker and human IgG1 Fc, V domains shown, not shown: another chain or arm of the molecule; a dimerising Fc or GST; small tags and cut ends) VL: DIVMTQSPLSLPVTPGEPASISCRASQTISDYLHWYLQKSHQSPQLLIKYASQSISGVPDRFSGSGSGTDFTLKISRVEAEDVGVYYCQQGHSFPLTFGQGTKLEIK VH: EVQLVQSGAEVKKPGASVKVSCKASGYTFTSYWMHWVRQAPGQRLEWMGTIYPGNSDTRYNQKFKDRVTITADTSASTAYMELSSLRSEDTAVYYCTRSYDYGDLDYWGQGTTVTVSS and give its measured MFI.
## Output 287
